Target: UniProt:P31645
Sequence (P31645 whole entry, looked up): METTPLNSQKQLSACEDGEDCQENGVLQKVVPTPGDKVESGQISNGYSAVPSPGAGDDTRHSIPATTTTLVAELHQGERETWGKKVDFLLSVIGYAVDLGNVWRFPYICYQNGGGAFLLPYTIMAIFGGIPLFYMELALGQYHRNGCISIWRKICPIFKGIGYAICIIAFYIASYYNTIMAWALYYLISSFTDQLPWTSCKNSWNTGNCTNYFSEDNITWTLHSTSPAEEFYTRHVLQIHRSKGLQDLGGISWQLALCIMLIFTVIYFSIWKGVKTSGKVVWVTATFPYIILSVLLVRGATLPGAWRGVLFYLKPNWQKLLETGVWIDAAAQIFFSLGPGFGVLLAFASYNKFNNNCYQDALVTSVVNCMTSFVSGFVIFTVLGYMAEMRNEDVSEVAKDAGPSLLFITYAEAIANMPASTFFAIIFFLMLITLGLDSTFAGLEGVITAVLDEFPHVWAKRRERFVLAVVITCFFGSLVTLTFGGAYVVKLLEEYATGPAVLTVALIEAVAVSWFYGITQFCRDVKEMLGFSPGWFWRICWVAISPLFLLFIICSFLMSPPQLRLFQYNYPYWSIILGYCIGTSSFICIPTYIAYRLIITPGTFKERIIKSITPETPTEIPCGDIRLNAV
Assay: Displacement of [3H]5-HT from SERT at 100 nM
measurementType: inhibition (%)

Look at this molecule and give its reported inhibition. "COc1cccc(C[C@@](O)(c2ccccc2)[C@@H]2CNCCO2)c1"
2.8

And the next one, COc1ccccc1C[C@@](O)(c1ccccc1)[C@@H]1CNCCO1 (single isomer, unassigned; isomer 2) ?
0.3

a: O[C@](Cc1ccccc1Cl)(c1ccccc1)[C@@H]1CNCCO1
b: O[C@](Cc1ccccc1SC(F)(F)F)(c1ccccc1)[C@@H]1CNCCO1
Choose between a and b : whose measured inhibition value is numerically larger? Reply briefly: the label of your chosen item.
b
(b: 14.8%, a: 4.6%)

====

Biological target: Sodium-dependent dopamine transporter (Homo sapiens) (UniProt Q01959)
Sequence (Q01959 whole entry): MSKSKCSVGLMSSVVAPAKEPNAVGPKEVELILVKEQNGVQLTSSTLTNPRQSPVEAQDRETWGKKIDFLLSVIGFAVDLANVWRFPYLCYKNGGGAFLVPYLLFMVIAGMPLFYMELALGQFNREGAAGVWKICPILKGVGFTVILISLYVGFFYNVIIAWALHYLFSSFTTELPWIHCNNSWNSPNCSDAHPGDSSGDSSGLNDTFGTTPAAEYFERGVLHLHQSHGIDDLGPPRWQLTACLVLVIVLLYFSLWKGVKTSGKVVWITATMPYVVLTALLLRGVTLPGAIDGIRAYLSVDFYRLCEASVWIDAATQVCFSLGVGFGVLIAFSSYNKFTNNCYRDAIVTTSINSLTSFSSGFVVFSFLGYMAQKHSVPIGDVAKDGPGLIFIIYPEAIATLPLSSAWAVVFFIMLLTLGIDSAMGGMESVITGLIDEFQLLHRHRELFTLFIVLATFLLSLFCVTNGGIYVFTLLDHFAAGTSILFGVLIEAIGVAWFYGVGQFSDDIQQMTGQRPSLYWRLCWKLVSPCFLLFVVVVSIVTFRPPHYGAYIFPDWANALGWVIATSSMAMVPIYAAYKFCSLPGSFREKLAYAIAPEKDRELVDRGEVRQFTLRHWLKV
Assay: Displacement of […] from DAT at 1000 nM
measurementType: inhibition (%)

P: CCOc1ccccc1C[C@@](O)(c1ccccc1)[C@@H]1CNCCO1
Q: COc1ccc(C[C@@](O)(c2ccccc2)[C@@H]2CNCCO2)cc1
Please tell me which of the two, P or Q , has the higher reported inhibition value. Respond using the label that marks the chosen record.
Q
(Q: 6.2%, P: 3.8%)

====

Target: Sodium-dependent noradrenaline transporter (Homo sapiens, UniProt P23975)
Sequence (P23975 whole entry): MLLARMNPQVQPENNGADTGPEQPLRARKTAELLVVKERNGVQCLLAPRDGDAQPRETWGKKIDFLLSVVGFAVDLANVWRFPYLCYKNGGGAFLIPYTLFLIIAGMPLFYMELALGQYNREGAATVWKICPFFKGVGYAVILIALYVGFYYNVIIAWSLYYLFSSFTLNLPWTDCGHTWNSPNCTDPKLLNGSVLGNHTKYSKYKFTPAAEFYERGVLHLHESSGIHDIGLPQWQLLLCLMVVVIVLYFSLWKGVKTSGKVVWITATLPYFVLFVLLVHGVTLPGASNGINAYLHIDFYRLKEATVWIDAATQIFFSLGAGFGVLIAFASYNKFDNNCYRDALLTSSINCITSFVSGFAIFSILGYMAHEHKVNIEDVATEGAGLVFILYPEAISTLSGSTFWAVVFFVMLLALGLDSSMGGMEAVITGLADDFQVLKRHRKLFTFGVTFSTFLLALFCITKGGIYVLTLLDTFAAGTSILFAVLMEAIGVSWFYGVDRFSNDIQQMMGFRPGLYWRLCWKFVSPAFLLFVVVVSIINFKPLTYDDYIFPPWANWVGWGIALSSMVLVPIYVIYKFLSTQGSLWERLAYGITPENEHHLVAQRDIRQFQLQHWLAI
pKi: −log10 of the molar value.
measurementType: pKi

Give the measured pKi of COc1ccccc1C[C@@](O)(c1ccccc1)[C@@H]1CNCCO1 (single isomer, unassigned; isomer 2) .
6.81

Let us now turn to "O[C@](Cc1ccccc1)(c1ccccc1)[C@@H]1CNCCO1"
6.83

Next up: "CCOc1ccccc1C[C@@](O)(c1ccccc1)[C@@H]1CNCCO1"
8.28

1: O[C@](Cc1ccccc1-c1ccccc1)(c1ccccc1)[C@@H]1CNCCO1 (single isomer, unassigned)
2: COc1ccccc1C[C@@](O)(c1ccccc1)[C@@H]1CNCCO1
Kindly compare 1 with 2 and tell me which has the lower pKi figure. Answer = label.
2
(2: 6.79, 1: 8.43)

====

Biological target: Sodium-dependent dopamine transporter (Homo sapiens) (UniProt Q01959)
Assay: Displacement of […] from DAT at 1000 nM
measurementType: inhibition (%)

Please tell me: inhibition of COc1ccccc1C[C@@](O)(c1ccccc1)[C@@H]1CNCCO1 (single isomer, unassigned; isomer 2) , system Sodium-dependent dopamine transporter (Homo sapiens) (UniProt Q01959)?
4.6

P: O[C@](Cc1ccccc1Cl)(c1ccccc1)[C@@H]1CNCCO1
Q: CC(C)Oc1ccccc1C[C@@](O)(c1ccccc1)[C@@H]1CNCCO1
R: O[C@](Cc1ccccc1-c1ccccc1)(c1ccccc1)[C@@H]1CNCCO1 (single isomer, unassigned)
Ascending sort, inhibition. Put the labels in the order asked and list them.
R, Q, P
(R: 2.9%, Q: 5.1%, P: 20.8%)

====

Biological target: Sodium-dependent dopamine transporter (Homo sapiens) (UniProt Q01959)
Test: Displacement of […] from DAT at 1000 nM
measurementType: inhibition (%)

a: O[C@](Cc1ccccc1Br)(c1ccccc1)[C@@H]1CNCCO1
b: COc1cccc(C[C@@](O)(c2ccccc2)[C@@H]2CNCCO2)c1
Just curious, which one has the larger inhibition reading, a or b ? State your choice using its label.
a
